All values here come from the supplement of paper PMC10981050.

Test system: OCI-AML2
Assay overview: cell viability relative to vehicle control; higher = less cytotoxic;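 note: after 48 h exposure read by CellTiter-Glo luminescence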
Condition: 10 µM; SRSF2 genotype: wt/wt
Structures can show the parent of a compound that is named as a salt.
Recorded endpoint: cell viability (%)
Report as a plain number; the unit % is understood.

Below, each entry is followed by its recorded cell viability result.
INSERT INTO assay_data (compound, recorded_endpoint, numeric_value) VALUES
  ('COc1cc(-c2oc3cc(O)cc(O)c3c(=O)c2O)ccc1O [Isorhamnetin]', 'cell viability', 89),
  ('CC(=O)O/N=C1\C(=O)N(Cc2cc(Cl)ccc2Cl)c2ccc(Cl)cc21', 'cell viability', 9.59),
  ('N#CC(=Cc1ccc(O)c(O)c1)C(=O)NCc1ccccc1 [AG-490 (Tyrphostin B42)]', 'cell viability', 93.7),
  ('CO/N=C(\C(=O)N[C@@H]1C(=O)N2C(C(=O)O)=C(CSC(=O)c3ccco3)CS[C@H]12)c1csc(N)n1 [Ceftiofur]', 'cell viability', 105);

# input Reported cell viability, compound COc1ccc(C2CC(=O)c3c(O)cc(OC4OC(COC5OC(C)C(O)C(O)C5O)C(O)C(O)C4O)cc3O2)cc1 (stereo unspecified) [Didymin] : ____
# output 103

# input Reported cell viability, compound C[C@H](CCC(=O)NCCS(=O)(=O)O)[C@H]1CC[C@H]2[C@@H]3[C@H](O)C[C@@H]4C[C@H](O)CC[C@]4(C)[C@H]3C[C@H](O)[C@]12C [Taurocholic acid sodium salt hydrate] : ____
# output 107

# input Reported cell viability, compound COc1cc(C)c(/C=C/C(C)=C/C=C/C(C)=C/C(=O)O)c(C)c1C [Acitretin] : ____
# output 52

# input Reported cell viability, compound COc1cc(O)c2c(=O)c(O[C@@H]3O[C@H](CO)[C@@H](O)[C@H](O)[C@H]3O)c(-c3ccc(O[C@@H]4O[C@H](CO)[C@@H](O)[C@H](O)[C@H]4O)cc3)oc2c1 [Complanatuside] : ____
# output 96.2

# input Reported cell viability, compound O=C1OC(C(O)CO)C([O-])=C1O.[Na+] (stereo unspecified) [Sodium erythorbate] : ____
# output 119

# input Reported cell viability, compound COc1cc(Nc2ncc(F)c(Nc3ccc4c(n3)NC(=O)C(C)(C)O4)n2)cc(OC)c1OC : ____
# output 47.7

###

System: MARIMO
Assay overview: cell viability relative to vehicle control; higher = less cytotoxic
Condition: 10 µM; SRSF2 genotype: SRSF2 wt/wt
Recorded endpoint: cell viability (%)
Report as a plain number; the unit % is understood.

INSERT INTO measurements (compound, system_name, output_unit, numeric_value) VALUES
  ('N#C/C(=C(/N)Sc1ccc(N)cc1)c1ccccc1C(F)(F)F', 'MARIMO', '%', 46.4),
  ('CCOC(=O)c1c(C)n(C)c2ccc(O)cc12 [Mecarbinate]', 'MARIMO', '%', 104),
  ('CC(C)=CC(=O)O[C@H]1Cc2cc3ccc(=O)oc3cc2OC1(C)C [Decursin]', 'MARIMO', '%', 88.5),
  ('COc1ccc(-c2cc(=O)c3c(O)cc(O)cc3o2)cc1O [Diosmetin (Luteolin 4-methyl ether)]', 'MARIMO', '%', 121),
  ('CCc1nc(-c2cccc(C)c2)c(-c2ccnc(NC(=O)c3ccccc3)c2)s1', 'MARIMO', '%', 64),
  ('C[C@]12C=CC(=O)N[C@@H]1CC[C@@H]1[C@@H]2CC[C@]2(C)[C@@H](C(=O)Nc3cc(C(F)(F)F)ccc3C(F)(F)F)CC[C@@H]12 [Dutasteride]', 'MARIMO', '%', 94.1),
  ('Cc1cccc(Nc2nc(N[C@@H]3CCCC[C@@H]3N)ncc2C(N)=O)c1', 'MARIMO', '%', 44.7),
  ('CCCCc1nc(C)c(CC(=S)N(C)C)c(=O)n1Cc1ccc(-c2ccccc2-c2nnn[nH]2)cc1 [Fimasartan]', 'MARIMO', '%', 109),
  ('O=C(O)C[C@H](O)C[C@H](O)/C=C/c1c(C2CC2)nc2ccccc2c1-c1ccc(F)cc1 [Pitavastatin calcium (Livalo)]', 'MARIMO', '%', 34.4),
  ('O=C(O)c1ccc2c(c1)nc(Nc1cccc(Cl)c1)c1ccncc12 [cx-4945 (Silmitasertib)]', 'MARIMO', '%', 47.3);

# input What value of cell viability on MARIMO does C[C@H]1[C@H](C)CC[C@]2(C(=O)O)CC[C@]3(C)C(=CC[C@@H]4[C@@]5(C)C[C@@H](O)[C@H](O)C(C)(C)[C@@H]5CC[C@]43C)[C@H]12 [Corosolic acid] have?
# output 107

# input What value of cell viability on MARIMO does COc1cc(Nc2c(C#N)cnc3cc(OCCCN4CCN(C)CC4)c(OC)cc23)c(Cl)cc1Cl [Bosutinib (SKI-606)] have?
# output 37.6
